Reference for the values: paper PMC10720262

For each of the binders below, state its binding score.
TESTED_SYSTEM: PfCSP full length (Plasmodium falciparum (isolate NF54), UniProt P19597)
Sequence (P19597 20-375): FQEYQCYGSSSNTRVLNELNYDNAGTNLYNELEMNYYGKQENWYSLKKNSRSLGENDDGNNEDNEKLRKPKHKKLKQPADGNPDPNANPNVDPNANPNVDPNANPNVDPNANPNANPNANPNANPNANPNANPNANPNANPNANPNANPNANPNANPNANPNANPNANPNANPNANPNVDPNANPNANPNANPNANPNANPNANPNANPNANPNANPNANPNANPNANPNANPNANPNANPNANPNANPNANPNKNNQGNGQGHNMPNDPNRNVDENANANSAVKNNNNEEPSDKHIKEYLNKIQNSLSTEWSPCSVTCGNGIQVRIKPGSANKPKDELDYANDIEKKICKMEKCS
PROTOCOL_TEXT: ELISA AUC
Numbers only.

Recorded binding score, per entry:
Given the binder CL-513279 (antibody, V domains shown, peptides N-terminally acetylated and C-terminally amidated) VH: QVQLVESGGGVVQPGRSLRLSCAASGFTFSNFGMHWVRQAPVKGLEWVALIWYDGSNKFYADSVQGRFTISRDNSKNILYLQMNSLRAEDTAVYYCAKVEARGVDYHSYGMDVWGQGTTVTVSS VL: DIQMTQSPSTLSASVGDRVTITCRASQSISSWLAWYQQKPGKAPQLLIYKASSLESGVPSRFSGSGSGTEFTLTISSLQPDDFATYYCQQYKYYWTFGQGTKVEIK , write its reported binding score. 2.06

Entry CL-512319 (antibody, V domains shown, peptides N-terminally acetylated and C-terminally amidated) VH: QVQLVESGGGVVQPGRSLRLSCAASGFTFSNFGMHWVRQAPGKGLEWVAVIWYDGSHKFYADSLKGRFTISRDNSKNTLYLQMNNLRAEDTAVYYCARAHPVTTDYDKYGMDVWGQGTTVTVSS VL: DIQMTQSPSTLSSSVGDRVTITCRASQSISIWLAWIQQKPGKAPKLLIYKASSLESGVPSRFSGSGSGTEFTLTISSLQPDDFATYYCQQFYSYWTFGLGTKVEIK needs its binding score filled in; supply it. 2.08

Entry CL-445901 (antibody, V domains shown, peptides N-terminally acetylated and C-terminally amidated) VH: QVQLVESGGGVVQPGRSLRLSCAASGFTFSNYGIHWVRQAPGKGLEWVALIWFNGNNKFYADSVEGRFTVSRDNSKNTLYLQLNSLRAEDTAVYYCARAYYFASGNYMDYWGQGTLVTVSS VL: DIQMTQSPSSVSASMGDRVTITCRASQDISSSLAWYQQKPGKAPILLISFASSLHSGVPSRFSGSGSGTDFTLTISSLQPEDFATYSCQQANSFPWTFGQGTRVEVK needs its binding score filled in; supply it. 2.4

Note down binding score recorded for CL-512264 (antibody, V domains shown, peptides N-terminally acetylated and C-terminally amidated) VH: QVQLVESGGGVVQPGRSLRLSCVTSGFTFSNFGMHWVRQAPGKGLEWVAIIWYDGSNKFYADSLKGRFTISRDNSKNTLFLQMNSLRAEDTAVYYCARAHTVTTANDKYGTDVWGQGTTVTVSS VL: DIQMTQSPSTLSASVGDRVTITCRASQSISSWLAWYQHKPGKAPKLLIYKASSLESGVPSRFSGSGSGTEFTLTISSLQPDDFATYFCQQYNSYWTFGQGTKVEIK 2.54

Read the next record carefully.
Annotate the binder CL-513808 (antibody, V domains shown, peptides N-terminally acetylated and C-terminally amidated) VH: QVQLVESGGGVVQPGRSLRLSCAASGFTFSNYGMHWVRQAPGKGLEWVAIIWYDGSNKFYADSVKGRFTISRDNSKNTLYLQMNSLRAEDTAVYYCARDDRGHSYGPYFDFWGQGTLVTVSS VL: EIVMTQSPATLSVSPGERATLSCRASQSVSSNLAWYQQKPGQAPRLLIYGASIRATGIPARFSGSGSGTEFTLTISILQSEDFAVYYCQQCNNWPWTFGQGTKVEIK with its measured binding score. 2.17
